Data origin: the supplement of paper PMC8617591

Tested on: Mycobacterium tuberculosis Erdman (autoluminescent)
assay.protocol: AUC25, normalised area under dose response up to IC25 (three-drug combination) (fraction (0-1)); higher = more potent at low dose
cond: in vitro model: acidic pH 5.7; time point: constant (~7 days, model-specific)
Label criterion met when AUC25 is at or above 0.09; otherwise label criterion not met.

compound: CC(=O)NC[C@H]1CN(c2ccc(N3CCOCC3)c(F)c2)C(=O)O1 [linezolid] + NC(=O)c1cnccn1 [pyrazinamide] + CO[C@H]1/C=C/O[C@@]2(C)Oc3c(C)c(O)c4c(O)c(c(/C=N/N5CCN(C6CCCC6)CC5)c(O)c4c3C2=O)NC(=O)/C(C)=C\C=C\[C@H](C)[C@H](O)[C@@H](C)[C@@H](O)[C@@H](C)[C@H](OC(C)=O)[C@@H]1C [rifapentine]
label: criterion met

compound: CC(C)/N=c1\cc2n(-c3ccc(Cl)cc3)c3ccccc3nc-2cc1Nc1ccc(Cl)cc1 [clofazimine] + CC[C@@H](CO)NCCN[C@@H](CC)CO [ethambutol] + CO[C@H]1/C=C/O[C@@]2(C)Oc3c(C)c(O)c4c(O)c(c(/C=N/N5CCN(C6CCCC6)CC5)c(O)c4c3C2=O)NC(=O)/C(C)=C\C=C\[C@H](C)[C@H](O)[C@@H](C)[C@@H](O)[C@@H](C)[C@H](OC(C)=O)[C@@H]1C [rifapentine]
label: criterion met

compound: CC(C)/N=c1\cc2n(-c3ccc(Cl)cc3)c3ccccc3nc-2cc1Nc1ccc(Cl)cc1 [clofazimine] + COc1c(N2C[C@@H]3CCCN[C@@H]3C2)c(F)cc2c(=O)c(C(=O)O)cn(C3CC3)c12 [moxifloxacin] + CO[C@H]1/C=C/O[C@@]2(C)Oc3c(C)c(O)c4c(O)c(c(/C=N/N5CCN(C6CCCC6)CC5)c(O)c4c3C2=O)NC(=O)/C(C)=C\C=C\[C@H](C)[C@H](O)[C@@H](C)[C@@H](O)[C@@H](C)[C@H](OC(C)=O)[C@@H]1C [rifapentine]
label: criterion not met

compound: CC[C@@H](CO)NCCN[C@@H](CC)CO [ethambutol] + NNC(=O)c1ccncc1 [isoniazid] + COc1c(N2C[C@@H]3CCCN[C@@H]3C2)c(F)cc2c(=O)c(C(=O)O)cn(C3CC3)c12 [moxifloxacin]
label: criterion met

compound: CC(C)/N=c1\cc2n(-c3ccc(Cl)cc3)c3ccccc3nc-2cc1Nc1ccc(Cl)cc1 [clofazimine] + CC(=O)NC[C@H]1CN(c2ccc(N3CCOCC3)c(F)c2)C(=O)O1 [linezolid] + COc1c(N2C[C@@H]3CCCN[C@@H]3C2)c(F)cc2c(=O)c(C(=O)O)cn(C3CC3)c12 [moxifloxacin]
label: criterion not met

* * *

System: Mycobacterium tuberculosis Erdman (autoluminescent)
assay.protocol: GRinf, maximum normalised growth rate inhibition (three-drug combination) (unitless (-1 to 1)); higher = less effect (negative = killing)
cond: in vitro model: cholesterol-high 0.2 mM; time point: terminal (~4-5 doublings, model-specific)
Label label 1 when GRinf is at or above -0.6; otherwise label label 0.

molecule: CC[C@@H](CO)NCCN[C@@H](CC)CO [ethambutol] + NC(=O)c1cnccn1 [pyrazinamide] + CO[C@H]1/C=C/O[C@@]2(C)Oc3c(C)c(O)c4c(O)c(c(/C=N/N5CCN(C6CCCC6)CC5)c(O)c4c3C2=O)NC(=O)/C(C)=C\C=C\[C@H](C)[C@H](O)[C@@H](C)[C@@H](O)[C@@H](C)[C@H](OC(C)=O)[C@@H]1C [rifapentine]
label: label 0

molecule: O=[N+]([O-])c1cn2c(n1)OC[C@@H](OCc1ccc(OC(F)(F)F)cc1)C2 [pretomanid] + NC(=O)c1cnccn1 [pyrazinamide] + CO[C@H]1/C=C/O[C@@]2(C)Oc3c(C)c(O)c4c(O)c(c(/C=N/N5CCN(C)CC5)c(O)c4c3C2=O)NC(=O)/C(C)=C\C=C\[C@H](C)[C@H](O)[C@@H](C)[C@@H](O)[C@@H](C)[C@H](OC(C)=O)[C@@H]1C
label: label 1

molecule: CC(=O)NC[C@H]1CN(c2ccc(N3CCOCC3)c(F)c2)C(=O)O1 [linezolid] + COc1c(N2C[C@@H]3CCCN[C@@H]3C2)c(F)cc2c(=O)c(C(=O)O)cn(C3CC3)c12 [moxifloxacin] + NC(=O)c1cnccn1 [pyrazinamide]
label: label 0

molecule: CC[C@@H](CO)NCCN[C@@H](CC)CO [ethambutol] + NNC(=O)c1ccncc1 [isoniazid] + CO[C@H]1/C=C/O[C@@]2(C)Oc3c(C)c(O)c4c(O)c(c(/C=N/N5CCN(C6CCCC6)CC5)c(O)c4c3C2=O)NC(=O)/C(C)=C\C=C\[C@H](C)[C@H](O)[C@@H](C)[C@@H](O)[C@@H](C)[C@H](OC(C)=O)[C@@H]1C [rifapentine]
label: label 1

molecule: NNC(=O)c1ccncc1 [isoniazid] + CC(=O)NC[C@H]1CN(c2ccc(N3CCOCC3)c(F)c2)C(=O)O1 [linezolid] + O=[N+]([O-])c1cn2c(n1)OC[C@@H](OCc1ccc(OC(F)(F)F)cc1)C2 [pretomanid]
label: label 0

molecule: NNC(=O)c1ccncc1 [isoniazid] + O=[N+]([O-])c1cn2c(n1)OC[C@@H](OCc1ccc(OC(F)(F)F)cc1)C2 [pretomanid] + CO[C@H]1/C=C/O[C@@]2(C)Oc3c(C)c(O)c4c(O)c(c(/C=N/N5CCN(C6CCCC6)CC5)c(O)c4c3C2=O)NC(=O)/C(C)=C\C=C\[C@H](C)[C@H](O)[C@@H](C)[C@@H](O)[C@@H](C)[C@H](OC(C)=O)[C@@H]1C [rifapentine]
label: label 1

molecule: COc1c(N2C[C@@H]3CCCN[C@@H]3C2)c(F)cc2c(=O)c(C(=O)O)cn(C3CC3)c12 [moxifloxacin] + O=[N+]([O-])c1cn2c(n1)OC[C@@H](OCc1ccc(OC(F)(F)F)cc1)C2 [pretomanid] + CO[C@H]1/C=C/O[C@@]2(C)Oc3c(C)c(O)c4c(O)c(c(/C=N/N5CCN(C)CC5)c(O)c4c3C2=O)NC(=O)/C(C)=C\C=C\[C@H](C)[C@H](O)[C@@H](C)[C@@H](O)[C@@H](C)[C@H](OC(C)=O)[C@@H]1C [rifampicin]
label: label 0

molecule: CC(C)/N=c1\cc2n(-c3ccc(Cl)cc3)c3ccccc3nc-2cc1Nc1ccc(Cl)cc1 [clofazimine] + NNC(=O)c1ccncc1 [isoniazid] + NC(=O)c1cnccn1 [pyrazinamide]
label: label 1

molecule: COc1c(N2C[C@@H]3CCCN[C@@H]3C2)c(F)cc2c(=O)c(C(=O)O)cn(C3CC3)c12 [moxifloxacin] + NC(=O)c1cnccn1 [pyrazinamide] + CO[C@H]1/C=C/O[C@@]2(C)Oc3c(C)c(O)c4c(O)c(c(/C=N/N5CCN(C6CCCC6)CC5)c(O)c4c3C2=O)NC(=O)/C(C)=C\C=C\[C@H](C)[C@H](O)[C@@H](C)[C@@H](O)[C@@H](C)[C@H](OC(C)=O)[C@@H]1C [rifapentine]
label: label 0

* * *

Tested on: Mycobacterium tuberculosis Erdman (autoluminescent)
assay.protocol: GRinf, maximum normalised growth rate inhibition (unitless (-1 to 1)); higher = less effect (negative = killing)
cond: in vitro model: standard 7H9 glycerol; time point: constant = terminal
value.kind: GRinf

compound: CC(C)/N=c1\cc2n(-c3ccc(Cl)cc3)c3ccccc3nc-2cc1Nc1ccc(Cl)cc1 [clofazimine] + O=[N+]([O-])c1cn2c(n1)OC[C@@H](OCc1ccc(OC(F)(F)F)cc1)C2 [pretomanid]
study.system: Mycobacterium tuberculosis Erdman (autoluminescent)
readout.value: -0.211
//
compound: CC[C@@H](CO)NCCN[C@@H](CC)CO [ethambutol] + NC(=O)c1cnccn1 [pyrazinamide]
study.system: Mycobacterium tuberculosis Erdman (autoluminescent)
readout.value: 0.0807
//
compound: COc1nc2ccc(Br)cc2cc1[C@@H](c1ccccc1)[C@@](O)(CCN(C)C)c1cccc2ccccc12 [bedaquiline] + O=[N+]([O-])c1cn2c(n1)OC[C@@H](OCc1ccc(OC(F)(F)F)cc1)C2 [pretomanid]
study.system: Mycobacterium tuberculosis Erdman (autoluminescent)
readout.value: -0.196
//
compound: COc1nc2ccc(Br)cc2cc1[C@@H](c1ccccc1)[C@@](O)(CCN(C)C)c1cccc2ccccc12 [bedaquiline] + CO[C@H]1/C=C/O[C@@]2(C)Oc3c(C)c(O)c4c(O)c(c(/C=N/N5CCN(C6CCCC6)CC5)c(O)c4c3C2=O)NC(=O)/C(C)=C\C=C\[C@H](C)[C@H](O)[C@@H](C)[C@@H](O)[C@@H](C)[C@H](OC(C)=O)[C@@H]1C [rifapentine]
study.system: Mycobacterium tuberculosis Erdman (autoluminescent)
readout.value: -0.0779

* * *

Test system: Mycobacterium tuberculosis Erdman (autoluminescent)
assay.protocol: AUC25, normalised area under dose response up to IC25 (fraction (0-1)); higher = more potent at low dose
cond: in vitro model: cholesterol-high 0.2 mM; time point: terminal (~4-5 doublings, model-specific)

molecule: CC(=O)NC[C@H]1CN(c2ccc(N3CCOCC3)c(F)c2)C(=O)O1 [linezolid] + CO[C@H]1/C=C/O[C@@]2(C)Oc3c(C)c(O)c4c(O)c(c(/C=N/N5CCN(C)CC5)c(O)c4c3C2=O)NC(=O)/C(C)=C\C=C\[C@H](C)[C@H](O)[C@@H](C)[C@@H](O)[C@@H](C)[C@H](OC(C)=O)[C@@H]1C [rifampicin]
AUC25: 0.0937
--
molecule: CC(=O)NC[C@H]1CN(c2ccc(N3CCOCC3)c(F)c2)C(=O)O1 [linezolid] + COc1c(N2C[C@@H]3CCCN[C@@H]3C2)c(F)cc2c(=O)c(C(=O)O)cn(C3CC3)c12 [moxifloxacin]
AUC25: 0.125
--
molecule: NNC(=O)c1ccncc1 [isoniazid] + NC(=O)c1cnccn1 [pyrazinamide]
AUC25: 0.0717
--
molecule: COc1c(N2C[C@@H]3CCCN[C@@H]3C2)c(F)cc2c(=O)c(C(=O)O)cn(C3CC3)c12 [moxifloxacin] + O=[N+]([O-])c1cn2c(n1)OC[C@@H](OCc1ccc(OC(F)(F)F)cc1)C2
AUC25: 0.0655
--
molecule: COc1nc2ccc(Br)cc2cc1[C@@H](c1ccccc1)[C@@](O)(CCN(C)C)c1cccc2ccccc12 [bedaquiline] + NC(=O)c1cnccn1 [pyrazinamide]
AUC25: 0.0705
--
molecule: CC(C)/N=c1\cc2n(-c3ccc(Cl)cc3)c3ccccc3nc-2cc1Nc1ccc(Cl)cc1 [clofazimine] + O=[N+]([O-])c1cn2c(n1)OC[C@@H](OCc1ccc(OC(F)(F)F)cc1)C2 [pretomanid]
AUC25: 0.0964
--
molecule: CC(C)/N=c1\cc2n(-c3ccc(Cl)cc3)c3ccccc3nc-2cc1Nc1ccc(Cl)cc1 [clofazimine] + CC(=O)NC[C@H]1CN(c2ccc(N3CCOCC3)c(F)c2)C(=O)O1 [linezolid]
AUC25: 0.133
